target: C. neoformans Sgl1 (Cryptococcus neoformans var. grubii, UniProt J9W473)
Sequence (J9W473 entry or part of it): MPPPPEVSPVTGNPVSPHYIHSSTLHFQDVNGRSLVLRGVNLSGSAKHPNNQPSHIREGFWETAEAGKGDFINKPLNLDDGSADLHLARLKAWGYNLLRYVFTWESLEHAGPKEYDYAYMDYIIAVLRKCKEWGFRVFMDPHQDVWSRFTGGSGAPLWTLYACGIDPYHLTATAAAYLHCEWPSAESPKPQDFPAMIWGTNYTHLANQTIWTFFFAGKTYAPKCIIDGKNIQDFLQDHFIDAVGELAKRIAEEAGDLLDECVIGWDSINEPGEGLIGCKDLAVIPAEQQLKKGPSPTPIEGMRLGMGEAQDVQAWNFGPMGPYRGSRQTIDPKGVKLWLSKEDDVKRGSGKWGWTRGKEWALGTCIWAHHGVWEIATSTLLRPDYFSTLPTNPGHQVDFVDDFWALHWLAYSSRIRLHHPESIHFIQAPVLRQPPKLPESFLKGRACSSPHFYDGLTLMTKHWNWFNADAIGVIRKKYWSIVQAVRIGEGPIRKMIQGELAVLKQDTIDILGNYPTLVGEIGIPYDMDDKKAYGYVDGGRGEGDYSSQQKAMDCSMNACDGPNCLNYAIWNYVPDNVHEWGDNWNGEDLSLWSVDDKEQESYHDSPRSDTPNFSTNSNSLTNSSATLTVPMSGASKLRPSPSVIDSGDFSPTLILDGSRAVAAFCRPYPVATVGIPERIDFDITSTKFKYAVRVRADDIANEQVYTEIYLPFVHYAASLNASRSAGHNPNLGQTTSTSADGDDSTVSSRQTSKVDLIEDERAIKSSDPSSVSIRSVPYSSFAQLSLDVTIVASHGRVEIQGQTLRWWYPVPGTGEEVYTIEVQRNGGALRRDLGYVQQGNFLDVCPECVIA
Consider the following molecules; for each one, report its pIC50.
Answers are plain numbers, as −log10 of the molar value.

Here is how some molecules turned out for pIC50.
CN(C)CCN(Cc1ccsc1)Cc1ccc2nonc2c1 [Hit 11] :: 5.40
O=C(c1ccc(-c2ccccc2)c(F)c1)C1CCCN(C2CCSCC2)C1 (stereo not shown) [Hit 2] :: 5.40
CC(C)Oc1cccc(C(=O)C2CCCN(C3CCSCC3)C2)c1 (stereo not shown) [Hit 3] :: 5.40
Cc1cc(NCc2ccc3[nH]c(C)c(C)c3c2)nc(N)n1 [Hit 4] :: 5.40
CCC(Sc1nc2ccccc2o1)C(=O)N1CCc2[nH]cnc2C1 (stereo not shown) [Hit 8] :: 5.40

Batch of 4 molecules: report pIC50 for each.
1. Cc1[nH]c2ccc(CNc3nccc(N)n3)cc2c1C [Hit 6]
2. COc1cc(CNCc2cc(C)cc3c(C)c(C)[nH]c23)cc2c1OCO2 [Hit 12]
3. CN1C[C@H](NS(=O)(=O)c2cc(Cl)ccc2Cl)C[C@H]1CO [Hit 13]
4. CN1C[C@H](Nc2nc(C(C)(C)C)nc3c2cnn3C)C[C@H]1CO [Hit 14]

5.70
5.70
5.70
6.00
